Kindly supply the reported Percent Effect values for the records listed here.
- Tested on: Mycobacterium tuberculosis
- assay.protocol: Cornell M. t heat shock assay; also: in the data most compounds retested in dose-response had high values
- Type: functional, organism-based
- Set-up: dose or concentration left out as unconfirmed
The whole screen tested about 69,000 compounds, of which about 950 (1.4%) showed an effect of 50% or more. The list comes from a sample in which strong results are over-represented; it also holds close analogues and randomly drawn compounds.
Numeric answer only, unit % assumed.

Specify reported Percent Effect for the compound shown: Cc1ccsc1C(=O)N1C[C@@H]2CN(Cc3ccoc3)CCO[C@@H]2C1.O=C(O)C(F)(F)F
-4.487

Annotate the compound COc1cccc(Cn2c(C3CCNCC3)cc3cccnc32)c1.Cl with its measured Percent Effect.
0.437

Please look at this compound and report its Percent Effect: CC(NC(=O)OC(C)(C)C)c1nnc(S(=O)(=O)Cc2ccc(Cl)cc2)o1 (stereo unspecified)
103.1

Fill in Percent Effect for record Cc1cc(N2CCCC2Cn2nc(C)cc2C)n2ncnc2n1 (stereo unspecified)
11.78

# return recorded Percent Effect for input CC(NC(=O)OC(C)(C)C)c1nnc(S(=O)(=O)Cc2ccccc2Cl)o1 (stereo unspecified)
10.13

For the compound CCCc1cc(=O)n(CC(=O)NC(C)C)c(-n2nc(C)cc2C)n1 , give its reported Percent Effect.
96.11

Please list Percent Effect recorded for the compound CN1CCCC1c1cccc(Cc2ccc(F)cc2)n1 (stereo unspecified)
24.93

Return the recorded Percent Effect value; entry: CCn1ccc(NC(=O)CN2C(=O)C(C)(C)c3ccccc32)n1
-16.77

Look up and report measured Percent Effect for this entry: CC(C)C(=O)N1CCC[C@]2(C(=O)N(C)C)CN(c3ccccn3)C[C@@H]2C1.O=C(O)C(F)(F)F
-34.76

Please give the documented Percent Effect of Cl.N[C@@H](Cc1ccccc1)c1nnc(S(=O)(=O)Cc2ccc(Cl)cc2)o1
-31.2

Annotate the compound CN1CCCC1c1cccc(Cc2ccccc2F)n1 (stereo unspecified) with its measured Percent Effect.
69.94

Query Percent Effect for CCCc1cc(=O)n(CC(=O)NCCOC)c(-n2nc(C)cc2C)n1
103.9

Give a short answer stating reported Percent Effect for Cc1ccc(C(=O)N2CCC3(CCCN(c4ncc(F)cn4)C3)C2)cn1.O=C(O)C(F)(F)F (stereo unspecified) .
10.32

Give a short answer stating reported Percent Effect for Cc1cccc(CN2C[C@@H]3CN(C(=O)c4cnoc4C)C[C@@H]3C2=O)n1.O=C(O)C(F)(F)F .
-1.837

Hello, please tell me recorded Percent Effect for this one: CCCNC(=O)Cn1c(-n2nc(C)cc2C)nc(CCC)cc1=O
96.63

Please give the documented Percent Effect of Cc1cc(NC(=O)CN2C(=O)CC(C)(C)c3ccccc32)no1
6.008

Return reported Percent Effect. Input compound: CC[C@@H]1N(Cc2ccc(C)s2)CCC[C@]12CCC(=O)N2C.O=C(O)C(F)(F)F
1.978

Note down Percent Effect recorded for CCn1cc(NC(=O)CN2C(=O)CC(C)(C)c3ccccc32)cn1
52.7

Quote Percent Effect reported for O=C(O)C(F)(F)F.O=S1(=O)c2ccccc2C2(CCN(Cc3ccccc3)C2)N1CC1CC1 (stereo unspecified) please.
20.71

Please indicate Percent Effect recorded for COCCNC(=O)c1cc(-c2cc[nH]n2)n2ccccc12.O=C(O)C(F)(F)F
-6.749

Let me know recorded Percent Effect for Cc1cc(-n2cncn2)n2ncnc2n1 , thanks.
61.29

Name the recorded Percent Effect of the item CNC(=O)C1Cn2ccnc2C2(CCN(Cc3ccncc3)CC2)O1.O=C(O)C(F)(F)F.O=C(O)C(F)(F)F.O=C(O)C(F)(F)F (stereo unspecified) in your answer.
-2.036

Give the reported value of Percent Effect for this record: O=C(O)C(F)(F)F.O=S(=O)(C1CC1)N1CCO[C@@H]2CC(COCc3cccnc3)C[C@H]21 (stereo partly specified)
22.38

Specify reported Percent Effect for the compound shown: O=C(Nc1cc(Cl)ccn1)c1nc(N2CCCC2)ncc1Cl
5.327

State, in one line, measured Percent Effect of CCOc1cc(CN[C@@H]2COC[C@H]2Cc2cc(C)no2)ccc1O.O=C(O)CC(O)(CC(=O)O)C(=O)O
-17.97

Tell me measured Percent Effect for CCCNC(=O)Cn1c(C)nn(C(C)(C)C)c1=O please.
11.09

Retrieve Percent Effect measured for COc1cc(N2C[C@H](C(=O)NCC3CC3)[C@@H]3CCO[C@@H]3C2)ncn1.O=C(O)C(F)(F)F and print it.
-37.92

Quickly give me recorded Percent Effect for CCc1ccc2c(C3CN(S(C)(=O)=O)C3)ncn2c1
-5.732

Retrieve Percent Effect measured for COCCNC(=O)Cn1c(C)cc2nc(SC)n(CC(C)C)c(=O)c21 and print it.
-7.488

Please list Percent Effect recorded for the compound CN(C)S(=O)(=O)N1C[C@H]2C[C@H](C(=O)Nc3ccccc3)[C@@H](C1)O2
3.45

Hello, please tell me recorded Percent Effect for this one: COCCn1cc(C(=O)N2CCCC2c2cccc(F)c2)ccc1=O (stereo unspecified)
-4.621

Give a short answer stating reported Percent Effect for COC1COC2(CCN(CC3CC3)CC2)C1.O=C(O)C(F)(F)F (stereo unspecified) .
-5.009

Please look at this compound and report its Percent Effect: CC1(C)CC(=O)N(CC(=O)Nc2ccon2)c2ccccc21
77.91

Please report Percent Effect for the following compound: CCc1ccc2c(C3CN(CC4CCC4)C3)ncn2c1.O=C(O)C(F)(F)F
59.23

Item Cc1noc(C(C)NC(=O)[C@@H](C)NC(=O)OC(C)(C)C)n1 (stereo partly specified) : provide Percent Effect
4.198

Quickly give me recorded Percent Effect for O=C(O)C(F)(F)F.O=C(c1ccco1)N1CC[C@@H]2O[C@@H](COCCN3CCCC3)CC[C@@H]21
-12.96

Retrieve Percent Effect measured for Cc1cc(Cc2cccc(C(F)(F)F)c2)cc(C2CCCNC2)n1 (stereo unspecified) and print it.
52.39

Give the value of Percent Effect reported for the following: O=C(Nc1ccccn1)c1nc(N2CCCC2)ncc1Cl
-2.485

Note down Percent Effect recorded for Cc1cnc(C(=O)N2CCCC(c3c(C)c(=O)nc4n3CCC4)C2)cn1.Cl (stereo unspecified)
-2.984

Answer with the recorded Percent Effect of Cn1cc(N2CC3(COCCN(Cc4ccccn4)C3)OCC2=O)cn1.O=C(O)C(F)(F)F (stereo unspecified) only.
-20.33

Report Percent Effect for O=C(O)C(F)(F)F.O=C(c1cscn1)N1CCc2ncnc(-c3cccnc3)c2CC1
-9.91
